molecular target: HO-1 (Rattus norvegicus); construct: selected to use the most native (i.e., closest to in vivo) forms of HO-1 and HO-2; from tissue; host or cells: rat spleen (male Sprague-Dawley), microsomal fraction; experiment: HO-1 enzymatic activity, rat spleen microsomal fraction (bilirubin formation); type: biochemical; details: ratio of HO-2 and HO-1 IC50
ATTRIBUTE_MEASURED: SI (HO-2/HO-1)

Example entries and their recorded answers appear below.
| COMPOUND | TARGET_DESC | ATTRIBUTE_MEASURED | OBS_VALUE |
| --- | --- | --- | --- |
| CN(C(=O)Cn1ccnc1)C(c1ccccc1)c1ccccc1 | HO-1 (Rattus norvegicus) | SI (HO-2/HO-1) | 1 |
| CN(C(=O)Cn1ccnc1)C(c1ccccc1)c1ccc(Cl)cc1 (stereo not drawn) | HO-1 (Rattus norvegicus) | SI (HO-2/HO-1) | 1.3 |

I. CN(C(=O)Cn1ccnc1)C(c1ccccc1)c1cccc(Br)c1 (stereo not drawn)
II. CN(C(=O)Cn1ccnc1)C(c1ccccc1)c1ccc(OCc2ccccc2)cc1 (stereo not drawn)
III. CN(C(=O)Cn1ccnc1)C(c1ccccc1)c1ccc(OCc2ccc(Br)cc2)cc1 (stereo not drawn)
IV. CN(C(=O)Cn1ccnc1)C(c1ccccc1)c1ccc(I)cc1 (stereo not drawn)
// query Place the items in sequence of falling SI (HO-2/HO-1). I'd appreciate it if you listed the labels in the requested order.
// result IV, II, III, I
(IV: 48.3, II: 9.3, III: 3.1, I: 1.2)

* * *

Molecular target: HO-2 (Rattus norvegicus, UniProt P23711)
Sequence (P23711 1-315): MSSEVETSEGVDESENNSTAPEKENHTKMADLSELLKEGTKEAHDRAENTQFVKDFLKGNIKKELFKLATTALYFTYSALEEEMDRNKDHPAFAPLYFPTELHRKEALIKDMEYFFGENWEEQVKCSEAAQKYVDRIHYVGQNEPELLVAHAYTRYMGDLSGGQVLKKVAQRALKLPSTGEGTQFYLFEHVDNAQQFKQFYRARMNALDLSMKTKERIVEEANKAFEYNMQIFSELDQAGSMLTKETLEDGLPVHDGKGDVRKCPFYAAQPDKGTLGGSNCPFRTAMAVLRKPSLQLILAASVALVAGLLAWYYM
ATTRIBUTE_MEASURED: IC50 (µM)

Example entries and their recorded answers appear below.
| COMPOUND | TARGET_DESC | UNIT_TAG | OBS_VALUE |
| --- | --- | --- | --- |
| CN(C(=O)Cn1ccnc1)C(c1ccccc1)c1ccc(OCc2ccccc2)cc1 (centres unmarked) | HO-2 (Rattus norvegicus, UniProt P23711) | µM | 11.2 |
| CN(C(=O)Cn1ccnc1)C(c1ccccc1)c1ccc(I)cc1 (centres unmarked) | HO-2 (Rattus norvegicus, UniProt P23711) | µM | 45.9 |

A. CN(C(=O)Cn1ccnc1)C(c1ccccc1)c1ccccc1
B. CN(C(=O)Cn1ccnc1)C(c1ccccc1)c1ccc(OCc2ccc(Br)cc2)cc1 (centres unmarked)
// query Lab notebook, comparison: A versus B , higher IC50 goes to which? Give the label under which the chosen entry appears.
// result B
(B: 24.7 µM, A: 0.9 µM)

* * *

target: hERG potassium channel (Homo sapiens); construct: Eurofins Scientific (contract assay) 4094; experiment: hERG human potassium ion channel binding (Eurofins)
Sequence (Q12809 whole entry): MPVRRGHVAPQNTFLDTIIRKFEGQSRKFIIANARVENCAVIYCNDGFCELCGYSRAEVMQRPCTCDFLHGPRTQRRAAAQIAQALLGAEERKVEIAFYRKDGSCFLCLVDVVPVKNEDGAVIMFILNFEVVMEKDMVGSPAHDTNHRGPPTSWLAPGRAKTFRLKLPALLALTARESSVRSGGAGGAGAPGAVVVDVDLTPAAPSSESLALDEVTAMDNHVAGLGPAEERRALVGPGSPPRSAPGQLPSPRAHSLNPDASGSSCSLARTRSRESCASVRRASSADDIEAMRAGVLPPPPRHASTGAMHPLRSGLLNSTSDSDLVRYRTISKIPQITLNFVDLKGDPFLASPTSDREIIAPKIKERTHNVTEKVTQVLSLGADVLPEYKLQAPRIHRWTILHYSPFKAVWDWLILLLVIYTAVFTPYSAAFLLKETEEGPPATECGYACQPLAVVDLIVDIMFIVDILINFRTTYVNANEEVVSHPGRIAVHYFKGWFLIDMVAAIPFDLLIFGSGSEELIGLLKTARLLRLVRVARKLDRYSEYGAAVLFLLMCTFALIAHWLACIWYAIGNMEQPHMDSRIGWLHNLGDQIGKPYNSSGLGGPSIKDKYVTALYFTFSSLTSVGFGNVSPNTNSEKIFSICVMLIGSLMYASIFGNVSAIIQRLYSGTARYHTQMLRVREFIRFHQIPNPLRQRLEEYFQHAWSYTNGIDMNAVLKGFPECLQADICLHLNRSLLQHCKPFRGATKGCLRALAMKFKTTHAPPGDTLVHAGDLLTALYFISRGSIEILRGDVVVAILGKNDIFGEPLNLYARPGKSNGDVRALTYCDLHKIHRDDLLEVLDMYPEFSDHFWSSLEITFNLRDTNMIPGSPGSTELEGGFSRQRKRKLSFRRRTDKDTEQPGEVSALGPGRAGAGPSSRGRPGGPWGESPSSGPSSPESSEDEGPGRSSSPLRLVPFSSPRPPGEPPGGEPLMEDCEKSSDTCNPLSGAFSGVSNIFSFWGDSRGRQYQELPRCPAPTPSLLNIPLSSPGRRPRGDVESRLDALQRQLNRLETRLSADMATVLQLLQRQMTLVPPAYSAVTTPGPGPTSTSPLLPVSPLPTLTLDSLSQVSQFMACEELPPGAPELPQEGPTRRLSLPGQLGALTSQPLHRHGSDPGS
ATTRIBUTE_MEASURED: inhibition at 1 µM (%)
Just the number in %, nothing appended.

// query Quote inhibition at 1 µM reported for CN(C(=O)Cn1ccnc1)C(c1ccccc1)c1ccc(Cl)cc1 (stereo not shown) [7l] please.
// result 5.7

* * *

assay: Microsomal stability, human liver microsome assay (Eurofins); format: in vitro ADME; details: human liver microsomes, protein 0.1 mg/mL; read-out: microsomal stability t1/2
ATTRIBUTE_MEASURED: half-life (h)
Just the number in h, nothing appended.

// query Quote half-life reported for CN(C(=O)Cn1ccnc1)C(c1ccccc1)c1ccc(Cl)cc1 (stereo not shown) please.
// result 1.98

* * *

assay: Bidirectional permeability (Caco-2); format: in vitro ADME; details: human; Caco-2, pH 6.5/7.4, tested concentration 10 μM
ATTRIBUTE_MEASURED: Papp A→B at 10 µM (×10⁻⁶ cm/s)
Just the number in ×10⁻⁶ cm/s, nothing appended.

// query Quote Papp A→B at 10 µM reported for CN(C(=O)Cn1ccnc1)C(c1ccccc1)c1ccc(Cl)cc1 (stereo not shown) please.
// result 44.1

* * *

target: human CYP3A4 (Homo sapiens); construct: Eurofins Scientific (contract assay) 391; test: CYP3A4 inhibition (Eurofins); type: in vitro ADME
Sequence (P08684 whole entry): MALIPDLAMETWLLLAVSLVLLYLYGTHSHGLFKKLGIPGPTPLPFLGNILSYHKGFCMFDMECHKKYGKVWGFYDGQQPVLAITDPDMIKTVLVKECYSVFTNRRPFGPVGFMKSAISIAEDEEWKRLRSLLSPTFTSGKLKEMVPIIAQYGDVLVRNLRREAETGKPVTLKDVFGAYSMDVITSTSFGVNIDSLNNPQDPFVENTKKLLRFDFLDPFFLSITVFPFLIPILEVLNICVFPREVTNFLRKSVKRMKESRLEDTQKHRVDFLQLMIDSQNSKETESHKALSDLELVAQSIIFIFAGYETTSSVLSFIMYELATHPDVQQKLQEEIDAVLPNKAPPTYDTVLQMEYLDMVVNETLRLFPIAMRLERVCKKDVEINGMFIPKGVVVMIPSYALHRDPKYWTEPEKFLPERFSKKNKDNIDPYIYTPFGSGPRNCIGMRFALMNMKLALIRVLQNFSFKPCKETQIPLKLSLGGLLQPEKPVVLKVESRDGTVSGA
ATTRIBUTE_MEASURED: pIC50
Please treat pIC50 as minus the base-10 logarithm of the molar concentration.

// query Give pIC50; test system human CYP3A4 (Homo sapiens); compound CN(C(=O)Cn1ccnc1)C(c1ccccc1)c1ccc(Cl)cc1 (stereo not shown) [7l]
// result 6.74

* * *

target: human CYP2D6 (Homo sapiens, UniProt P10635); construct: Eurofins Scientific (contract assay) 1338; assay: CYP2D6 inhibition (Eurofins); type: in vitro ADME
Sequence (P10635 whole entry): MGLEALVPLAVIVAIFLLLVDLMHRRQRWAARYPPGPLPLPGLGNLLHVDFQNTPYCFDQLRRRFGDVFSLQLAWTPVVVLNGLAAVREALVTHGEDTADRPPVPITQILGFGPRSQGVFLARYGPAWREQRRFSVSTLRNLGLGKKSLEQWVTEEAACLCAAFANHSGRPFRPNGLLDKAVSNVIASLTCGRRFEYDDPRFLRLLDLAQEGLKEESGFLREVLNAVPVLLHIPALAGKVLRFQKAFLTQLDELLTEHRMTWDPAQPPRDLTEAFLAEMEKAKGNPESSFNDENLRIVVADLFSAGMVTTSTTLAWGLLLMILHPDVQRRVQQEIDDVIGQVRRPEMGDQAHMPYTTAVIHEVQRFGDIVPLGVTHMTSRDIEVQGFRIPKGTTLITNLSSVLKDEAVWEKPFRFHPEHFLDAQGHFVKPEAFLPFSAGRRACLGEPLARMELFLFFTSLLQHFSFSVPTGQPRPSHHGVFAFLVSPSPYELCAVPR
ATTRIBUTE_MEASURED: IC50 (nM)
Just the number in nM, nothing appended.

// query Quote IC50 reported for CN(C(=O)Cn1ccnc1)C(c1ccccc1)c1ccc(Cl)cc1 (stereo not shown) please.
// result 2500

* * *

Recorded melting point values for a group of compounds are listed next.

Example entries and their recorded answers appear below.
| COMPOUND | melting point |
| --- | --- |
| CN(C(=O)Cn1ccnc1)C(c1ccccc1)c1ccc(OCc2ccccc2)cc1 (stereo not drawn) [7o] | 119 to 121 °C |
| CN(C(=O)Cn1ccnc1)C(c1ccccc1)C1CCCC1 (stereo not drawn) [7j] | 134 to 136 °C |
| O=C(Cn1ccnc1)Nc1ccc(I)cc1 [7d] | 222 to 225 °C |
| CN(C(=O)Cn1ccnc1)c1ccccc1 [7b] | 117 to 119 °C |
| O=C(Cn1ccnc1)N(Cc1ccccc1)Cc1ccccc1 [7h] | 99 to 102 °C |
| CN(C(=O)Cn1ccnc1)C(c1ccccc1)c1ccc(OCc2ccc(Br)cc2)cc1 (stereo not drawn) [7p] | 120 to 121 °C |
| CN(C(=O)Cn1ccnc1)C(c1ccccc1)c1cccc(Br)c1 (stereo not drawn) [7m] | 82 to 83 °C |
| CN(Cc1ccccc1)C(=O)Cn1ccnc1 [7g] | 106 to 111 °C |

// query Quote melting point reported for O=C(Cn1ccnc1)Nc1cccc(Br)c1 [7c] please.
// result 158 to 162 °C

// query Quote melting point reported for CN(C(=O)Cn1ccnc1)C(c1ccccc1)C1CCCCC1 (stereo not drawn) [7k] please.
// result 130 to 133 °C

// query Quote melting point reported for CN(C(=O)Cn1ccnc1)C(c1ccccc1)c1ccccc1 [7i] please.
// result 121 to 126 °C

// query Quote melting point reported for CN(C(=O)Cn1ccnc1)C(c1ccccc1)c1ccc(I)cc1 (stereo not drawn) [7n] please.
// result 69 to 71 °C

* * *

assay: Bidirectional permeability (Caco-2); format: in vitro ADME; conditions: human; Caco-2, pH 6.5/7.4, tested concentration 10 μM
ATTRIBUTE_MEASURED: Papp B→A at 10 µM (×10⁻⁶ cm/s)
Just the number in ×10⁻⁶ cm/s, nothing appended.

// query Quote Papp B→A at 10 µM reported for CN(C(=O)Cn1ccnc1)C(c1ccccc1)c1ccc(Cl)cc1 (stereo not shown) please.
// result 19.4

* * *

Molecular target: HO-1 (Rattus norvegicus, UniProt P06762)
Sequence (P06762 1-289): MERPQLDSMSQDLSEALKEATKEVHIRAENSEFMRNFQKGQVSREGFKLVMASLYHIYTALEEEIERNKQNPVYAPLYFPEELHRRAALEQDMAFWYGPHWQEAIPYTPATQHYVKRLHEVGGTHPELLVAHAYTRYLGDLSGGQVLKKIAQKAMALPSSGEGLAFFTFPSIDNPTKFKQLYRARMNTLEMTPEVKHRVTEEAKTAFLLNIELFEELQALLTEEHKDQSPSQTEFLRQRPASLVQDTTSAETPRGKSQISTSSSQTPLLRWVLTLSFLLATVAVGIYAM
pIC50: −log10 of the molar value.
ATTRIBUTE_MEASURED: pIC50

| COMPOUND | ATTRIBUTE_MEASURED | OBS_VALUE |
| --- | --- | --- |
| O=C(c1ccccc1)N(CCCn1ccnc1)Cc1ccccc1 [11b] | pIC50 | 4.51 |
| CN(C(=O)Cn1ccnc1)C(c1ccccc1)c1ccc(Cl)cc1 (centres unmarked) | pIC50 | 6.02 |
| O=C(Cc1ccccc1)N(CCCn1ccnc1)Cc1ccccc1 [11c] | pIC50 | 4.49 |

A. CN(Cc1ccccc1)C(=O)Cn1ccnc1
B. CC(=O)N(CCCn1ccnc1)Cc1ccccc1 [11a]
// query Just tell me: smaller pIC50 value, A or B ? Give the label under which the chosen entry appears.
// result B
(B: 3.65, A: 4.30)

Numbers sourced from paper PMC8474116.
